- System: SEM cells
- assay_notes: cell viability relative to DMSO control; higher = less cytotoxic
- condition_summary: RPMI 5 mM glucose + 10% FBS; 48 h; 0.0632 µM
outcome_measure: cell viability

Ask: What does the record list as cell viability for CN1\C(=C(O)/C2=C(C=C(Cl)S2)[S+]1([O-])=O)C(=O)NC3=NC=CC=C3 ?
Result: 88.3%

Ask: What does the record list as cell viability for CC(C)N(CCCNC(=O)Nc1ccc(C(C)(C)C)cc1)C[C@H]1O[C@@H](n2cc(Br)c3c(N)ncnc32)[C@H](O)[C@@H]1O ?
Result: 114%

Ask: What does the record list as cell viability for CCCCc1ccc(N[S+](=O)([O-])c2ccc(C)c(C(=O)N3CCN(c4cccc(C)c4C)CC3)c2)cc1 ?
Result: 129%

Ask: What does the record list as cell viability for CC(=O)OCC(CCn1cnc2cnc(N)nc21)COC(C)=O ?
Result: 88.1%
